Test system: OVCAR-8
Assay: NCI tumour cell line growth inhibition, 48 h
The source made the active and inactive calls. Rule as the data show it: active = GI50 up to about 1.1 µM and inactive = higher.
READOUT NAME: GI50

Ask: Param readout= GI50; system= OVCAR-8; entry= C=CCN(c1cc(OC)c2[nH]c(C(=O)OCC)c(C)c2c1[N+](=O)[O-])S(C)(=O)=O ; returns value.
Reply: 28.6 µM (inactive)

Ask: Param readout= GI50; system= OVCAR-8; entry= Cn1c2c(c3c(=O)[nH]ncc31)CCc1ccccc1-2 ; returns value.
Reply: 57.3 µM (inactive)

Ask: Param readout= GI50; system= OVCAR-8; entry= CC(C)OC(=O)NNc1cc(Cl)ccc1Cl ; returns value.
Reply: > 100 µM (inactive)

Ask: Param readout= GI50; system= OVCAR-8; entry= Cc1c(N2CCOCC2)nc2ccc(Cl)cc2c1-c1ccccc1 ; returns value.
Reply: > 100 µM (inactive)

Ask: Param readout= GI50; system= OVCAR-8; entry= O=C(O)CP(=O)(O)O ; returns value.
Reply: > 100 µM (inactive)

Ask: Param readout= GI50; system= OVCAR-8; entry= C[C@]12CC[C@@H]3c4ccc(OS(N)(=O)=O)cc4CC[C@H]3[C@@H]1CCC2=O [EMATE] ; returns value.
Reply: 53 µM (inactive)
